This section presents compounds with their documented inhibition values.
Test system: Pseudomonas aeruginosa
Assay: Inhibition of Pseudomonas aeruginosa PqsD assessed as HHQ formation at 50 uM incubated 30 mins prior to substrate addition

recordSmiles: CCc1ccc(C(=O)Nc2ccccc2C(=O)O)cc1S(=O)(=O)N(CC)CC
inhibition: 39%
--
recordSmiles: CCN(CC)S(=O)(=O)c1cccc(C(=O)Nc2cccc(C(=O)O)c2)c1
inhibition: 13%
--
recordSmiles: CN(C)S(=O)(=O)c1cccc(C(=O)Nc2ccccc2C(=O)O)c1
inhibition: 35%
--
recordSmiles: CCN(CC)C(=O)c1cccc(C(=O)Nc2ccccc2C(=O)O)c1
inhibition: < 10%
--
recordSmiles: O=C(Nc1ccccc1C(=O)O)c1cccc(S(=O)(=O)N2CCOCC2)c1
inhibition: 16%
